# TGT: T1, interleukin 6 (IL-6) (UniProt P05231 30-212)
# T1 construct: also called b-IL-6
# ASSAY COMMENT: SPR, Biacore T200; target immobilized on CM5, His6-tagged Y variant injected; 1:1 Langmuir
# Procedure: Kinetic constants (kₐ and kd) and affinities (KD) were determined for Hiss-tagged Y variants using a Biacore T200 instrument (GE Healthcare). […] Immobilization was performed using amine coupling chemistry according to the manufacturer's protocol and PBS pH 7.4 supplemented with 0.1 Tween20 (PBST 0.1%) as running buffer. […] Kinetic constants were calculated from the sensorgrams using the Langmuir 1:1 model of Biacore T200 Evaluation software 2.0 (GE Healthcare).
Response key: Met means kon >= 20000 M⁻¹ s⁻¹; Not met means kon < 20000 M⁻¹ s⁻¹.

Y02701 (designed binder, Y02415 with K15Y) MGSSHHHHHHGSSLAEAKEAAIAELDSYGVGAGDIKDIQDALLVEIVQLLKQAILAVLPA	Met
Y02703 (designed binder, Y02444 with K15Y + Q26E) MGSSHHHHHHGSSLAEAKEAAIAELDSYGVGAVEIKQIEEALLVEIVQLLKQAILAVLPA	Met
Y02699 (designed binder, Y02444 with Q26E) MGSSHHHHHHGSSLAEAKEAAIAELDSKGVGAVEIKQIEEALLVEIVQLLKQAILAVLPA	Not met
Y02697 (designed binder, Y02444 with I9L) MGSSHHHHHHGSSLAEAKEAALAELDSKGVGAVEIKQIQEALLVEIVQLLKQAILAVLPA	Met
Y02444 (designed binder, From library Ylib002Naive.I; also called Y002444) MGSSHHHHHHGSSLAEAKEAAIAELDSKGVGAVEIKQIQEALLVEIVQLLKQAILAVLPA	Met

Identify whether the reported kon of the following binder is 20000 M⁻¹ s⁻¹ or greater: Y02702 (designed binder, Y02415 with Q26E) MGSSHHHHHHGSSLAEAKEAAIAELDSKGVGAGDIKDIEDALLVEIVQLLKQAILAVLPA
Not met

Identify whether the reported kon of the following binder is 20000 M⁻¹ s⁻¹ or greater: Y02698 (designed binder, Y02444 with K15Y) MGSSHHHHHHGSSLAEAKEAAIAELDSYGVGAVEIKQIQEALLVEIVQLLKQAILAVLPA
Met

Identify whether the reported kon of the following binder is 20000 M⁻¹ s⁻¹ or greater: Y02447 (designed binder, From library Ylib002Naive.I) MGSSHHHHHHGSSLAEAKEAAIAELDSKGVGAHGIKEIQDAILVEIVQLLKQAILAALPA
Not met

Identify whether the reported kon of the following binder is 20000 M⁻¹ s⁻¹ or greater: Y02374 (designed binder, From library Ylib002Naive.I) MGSSHHHHHHGSSLAEAKEAAIAELDSKGVGAAEIKRIQAAELVEIVQLLKQAILAVLPA
Not met

Identify whether the reported kon of the following binder is 20000 M⁻¹ s⁻¹ or greater: Y02495 (designed binder, From library Ylib002Naive.I) MGSSHHHHHHGSSLAEAKEAAIAELDSKGVGAEEIKEIQGAMLVEIVQLLKQAILAVLPA
Not met

Identify whether the reported kon of the following binder is 20000 M⁻¹ s⁻¹ or greater: Y02465 (designed binder, From library Ylib002Naive.I) MGSSHHHHHHGSSLAEAKEAAIAELDSKGVGANHIKAIQHAQFVEIVQLLKQAILAVLPA
Not met

Identify whether the reported kon of the following binder is 20000 M⁻¹ s⁻¹ or greater: Y02415 (designed binder, From library Ylib002Naive.I) MGSSHHHHHHGSSLAEAKEAAIAELDSKGVGAGDIKDIQDALLVEIVQLLKQAILAVLPA
Not met

Identify whether the reported kon of the following binder is 20000 M⁻¹ s⁻¹ or greater: Y02700 (designed binder, Y02415 with I9L) MGSSHHHHHHGSSLAEAKEAALAELDSKGVGAGDIKDIQDALLVEIVQLLKQAILAVLPA
Met
